Method summary: Plasma stability and prodrug reversion (ethyl acetate extraction, HPLC)
Measurement setup: human, plasma
Recorded endpoint: recovery

>>> observed_measurement("CC(=O)O[C@H]1C(=O)[C@@]2(C)[C@H]([C@H](OC(=O)c3ccccc3)[C@]3(O)C[C@H](OC(=O)[C@H](Oc4cccc[n+]4C)[C@@H](NC(=O)c4ccccc4)c4ccccc4)C(C)=C1C3(C)C)[C@]1(OC(C)=O)CO[C@@H]1C[C@@H]2O")
"21%"
>>> observed_measurement("CC(=O)O[C@@]12CO[C@@H]1C[C@H](O)[C@@]1(C)C(=O)[C@H](O)C3=C(C)[C@@H](OC(=O)[C@H](Oc4cccc[n+]4C)[C@@H](NC(=O)OC(C)(C)C)c4ccccc4)C[C@@](O)([C@@H](OC(=O)c4ccccc4)[C@H]21)C3(C)C")
"18%"
>>> observed_measurement("CC(=O)O[C@H]1C(=O)[C@@]2(C)[C@H]([C@H](OC(=O)c3ccccc3)[C@]3(O)C[C@H](OC(=O)[C@H](OC(=O)CS(=O)(=O)C(=O)O)[C@@H](NC(=O)c4ccccc4)c4ccccc4)C(C)=C1C3(C)C)[C@]1(OC(C)=O)CO[C@@H]1C[C@@H]2O")
"34%"
>>> observed_measurement("CC(=O)O[C@H]1C(=O)[C@@]2(C)[C@H]([C@H](OC(=O)c3ccccc3)[C@]3(O)C[C@H](OC(=O)[C@H](O)[C@@H](NC(=O)c4ccccc4)c4ccccc4)C(C)=C1C3(C)C)[C@]1(OC(C)=O)CO[C@@H]1C[C@@H]2O [Compound 1, reference compound]")
"95%"
>>> observed_measurement("CC(=O)O[C@H]1C(=O)[C@]2(C)[C@@H](Oc3cccc[n+]3C)C[C@H]3OC[C@@]3(OC(C)=O)[C@H]2[C@H](OC(=O)c2ccccc2)[C@]2(O)C[C@H](OC(=O)[C@H](O)[C@@H](NC(=O)c3ccccc3)c3ccccc3)C(C)=C1C2(C)C")
"20%"

----------
Method summary: Toxicity and survival in vivo (tumor bearing nude mice)
Measurement setup: at end of experiments
Recorded endpoint: % survival

>>> observed_measurement("CC(=O)O[C@H]1C(=O)[C@@]2(C)[C@H]([C@H](OC(=O)c3ccccc3)[C@]3(O)C[C@H](OC(=O)[C@H](Oc4cccc[n+]4C)[C@@H](NC(=O)c4ccccc4)c4ccccc4)C(C)=C1C3(C)C)[C@]1(OC(C)=O)CO[C@@H]1C[C@@H]2O")
"100%"
>>> observed_measurement("CC(=O)O[C@H]1C(=O)[C@]2(C)[C@@H](Oc3cccc[n+]3C)C[C@H]3OC[C@@]3(OC(C)=O)[C@H]2[C@H](OC(=O)c2ccccc2)[C@]2(O)C[C@H](OC(=O)[C@H](O)[C@@H](NC(=O)c3ccccc3)c3ccccc3)C(C)=C1C2(C)C")
"100%"
>>> observed_measurement("CC(=O)O[C@H]1C(=O)[C@@]2(C)[C@H]([C@H](OC(=O)c3ccsc3)[C@]3(O)C[C@H](OC(=O)[C@H](Oc4cccc[n+]4C)[C@@H](NC(=O)c4ccccc4)c4ccccc4)C(C)=C1C3(C)C)[C@]1(OC(C)=O)CO[C@@H]1C[C@@H]2O")
"100%"

----------
Method summary: Toxicity and survival in vivo (tumor bearing nude mice)
Measurement setup: at end of experiments
Recorded endpoint: % survival (%)

>>> observed_measurement("CC(=O)O[C@H]1C(=O)[C@@]2(C)[C@H]([C@H](OC(=O)c3ccccc3)[C@]3(O)C[C@H](OC(=O)[C@H](OC(=O)CS(=O)(=O)C(=O)O)[C@@H](NC(=O)c4ccccc4)c4ccccc4)C(C)=C1C3(C)C)[C@]1(OC(C)=O)CO[C@@H]1C[C@@H]2O")
75

----------
Listed here are molecules together with their documented IC50.
Tested on: UCLA-P3 lung carcinoma cells
Method summary: XTT dye binding cytotoxicity assay, UCLA-P3
Assay type: cell-based
Measurement setup: Homo sapiens, UCLA P-3; UCLA-P3, lung carcinoma; 72 h; read-out: IC50
Recorded endpoint: IC50 (nM)

>>> observed_measurement("CC(=O)O[C@@]12CO[C@@H]1C[C@H](O)[C@@]1(C)C(=O)[C@H](O)C3=C(C)[C@@H](OC(=O)[C@H](O)[C@@H](NC(=O)OC(C)(C)C)c4ccccc4)C[C@@](O)([C@@H](OC(=O)c4ccccc4)[C@H]21)C3(C)C [Compound 5, reference compound]")
0.12
>>> observed_measurement("CC(=O)O[C@H]1C(=O)[C@@]2(C)[C@H]([C@H](OC(=O)c3ccsc3)[C@]3(O)C[C@H](OC(=O)[C@H](Oc4cccc[n+]4C)[C@@H](NC(=O)c4ccccc4)c4ccccc4)C(C)=C1C3(C)C)[C@]1(OC(C)=O)CO[C@@H]1C[C@@H]2O [Compound 4]")
1.88
>>> observed_measurement("CC(=O)O[C@@]12CO[C@@H]1C[C@H](O)[C@@]1(C)C(=O)[C@H](O)C3=C(C)[C@@H](OC(=O)[C@H](Oc4cccc[n+]4C)[C@@H](NC(=O)OC(C)(C)C)c4ccccc4)C[C@@](O)([C@@H](OC(=O)c4ccccc4)[C@H]21)C3(C)C [Compound 6]")
19.9
>>> observed_measurement("CC(=O)O[C@H]1C(=O)[C@]2(C)[C@@H](Oc3cccc[n+]3C)C[C@H]3OC[C@@]3(OC(C)=O)[C@H]2[C@H](OC(=O)c2ccccc2)[C@]2(O)C[C@H](OC(=O)[C@H](O)[C@@H](NC(=O)c3ccccc3)c3ccccc3)C(C)=C1C2(C)C [Compound 3]")
12.8
